Source listed as patent US12583858B2.

target_entity: TDO2 (Homo sapiens, UniProt P48775)
Construct: decreased levels of NFK in SW48 cells (high TDO expressing cells)
Sequence (P48775 whole entry): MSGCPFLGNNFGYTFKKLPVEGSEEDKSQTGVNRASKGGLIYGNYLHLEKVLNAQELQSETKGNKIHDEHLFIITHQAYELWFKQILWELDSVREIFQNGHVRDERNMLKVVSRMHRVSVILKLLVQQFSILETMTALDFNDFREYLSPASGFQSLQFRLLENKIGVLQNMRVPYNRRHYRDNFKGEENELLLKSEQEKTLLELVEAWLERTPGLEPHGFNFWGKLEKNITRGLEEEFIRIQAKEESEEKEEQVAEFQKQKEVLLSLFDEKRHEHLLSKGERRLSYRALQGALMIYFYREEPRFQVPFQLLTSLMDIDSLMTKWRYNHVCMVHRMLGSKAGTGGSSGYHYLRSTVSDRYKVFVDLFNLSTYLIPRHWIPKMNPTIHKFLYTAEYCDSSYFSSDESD
method: TDO2 cell assay (NFK GreenScreen, SW48 cells)
Assay type: cell-based
condition_details: SW48 cells (high TDO expressing), 200 uM tryptophan, 24 hours; Table 3; read-out: TDO2 Cell Fluor EC50
Each record here notes measured EC50.

# compound, sign_qualifier, EC50 (µM)
measured = [
    ("OC1c2nonc2CCC1C1c2ccccc2-c2cncn21 (single isomer, unassigned) [Example 163a]", "=", 0.1),
    ("O[C@@H](C1CCOCC1)[C@H]1c2ccccc2-c2cncn21 (single isomer, unassigned) [Example 138b]", ">", 25),
    ("Cn1cc2c(n1)[C@@H](O)[C@@H]([C@@H]1c3ccccc3-c3cncn31)CC2 (single isomer, unassigned) [Example 139-1c]", ">", 25),
    ("OC1(C2c3ccccc3-c3cncn32)CCC1 (single isomer, unassigned) [Example 47a]", "=", 0.35),
    ("O[C@H]1CCC(F)(F)C[C@H]1[C@@H]1c2ccccc2-c2cncn21 (single isomer, unassigned) [Example 18f]", "=", 15),
    ("OC1c2ccccc2CCC1C1c2ccccc2-c2cncn21 (single isomer, unassigned) [Example 102b]", "=", 19),
    ("OC1COCCC1C1c2cc(F)ccc2-c2cncn21 (single isomer, unassigned) [Example 75-1b]", ">", 25),
    ("OC1COCCC1C1c2ccc(F)cc2-c2cncn21 (single isomer, unassigned) [Example 33a]", ">", 25),
    ("OC(C1c2ccccc2-c2cncn21)C1(F)CC1 (single isomer, unassigned) [Example 154d]", "=", 13),
    ("OC1CCCC1C1c2ccc(F)cc2-c2cncn21 (single isomer, unassigned) [Example 20a]", ">", 25),
    ("NS(=O)(=O)N1CC[C@@H]([C@H]2c3ccccc3-c3cncn32)[C@H](O)C1 (single isomer, unassigned) [Example 39b]", "=", 3.7),
    ("C[C@H](O)[C@@H]1c2ccccc2-c2cncn21 [Example 42d]", "=", 23.7),
    ("O[C@@H]1c2ccncc2CC[C@@H]1[C@H]1c2ccccc2-c2cncn21 (single isomer, unassigned) [Example 08d]", "=", 0.51),
    ("Cc1cnn2c1C(O)C(C1c3ccccc3-c3cncn31)CC2 (single isomer, unassigned) [Example 159a]", "=", 0.27),
    ("O=S(=O)(C1CC1)N1CC[C@@H](O)[C@H]([C@H]2c3ccccc3-c3cncn32)C1 (single isomer, unassigned) [Example 70a]", ">", 25),
    ("CC(C)(C)OC(=O)N1CC2(CC(C3c4ccccc4-c4cncn43)C2O)C1 (single isomer, unassigned) [Example 41e]", "=", 0.62),
    ("O[C@H]1[C@H]([C@H]2c3ccccc3-c3cncn32)CCCC1(F)F (single isomer, unassigned) [Example 106b]", "=", 0.17),
    ("O[C@H]1c2ccncc2CC[C@@H]1[C@@H]1c2ccccc2-c2cncn21 (single isomer, unassigned) [Example 08b]", "=", 0.6),
    ("NS(=O)(=O)N1CCC2(CCC(C3c4ccccc4-c4cncn43)C2O)CC1 (single isomer, unassigned) [Example 182d]", "=", 0.092),
    ("O[C@@H]1CC2(COC2)[C@H]1[C@@H]1c2ccccc2-c2cncn21 [Example 87b]", "=", 0.3),
    ("OC1c2nccn2CCC1C1c2ccccc2-c2cncn21 (single isomer, unassigned) [Example 88b]", ">", 25),
    ("NC(=O)c1ccc2c(n1)CCC(C1c3ccccc3-c3cncn31)C2O (single isomer, unassigned) [Example 104f]", "=", 8.6),
    ("OC1CC2(CC2)C1C1c2ccccc2-c2cncn21 (single isomer, unassigned) [Example 72d]", "=", 9),
    ("OC1c2cc(C(F)F)nn2CCC1C1c2ccccc2-c2cncn21 (single isomer, unassigned) [Example 173b]", "=", 0.43),
]
